Experiment: qHTS profiling of the MIPE4 collection as inhibitors of Plasmodium falciparum (DD2) proliferation (Rep 2) (AID 743346)
Settings: P. falciparum Dd2 in erythrocytes, SYBR Green DNA, 72 h; at 28.5 µM unless noted
measuredMetric: parasite growth, % of control (lower = inhibition) (%)
Value expressed in %; do not type the unit.

compound	unitSpec	measured
COc1cccc2c1C(=O)c1c(O)c3c(c(O)c1C2=O)C[C@@](O)(C(C)=O)C[C@H]3O[C@H]1C[C@H](N)[C@H](O)[C@H](C)O1	%	6.6
Oc1ccc([C@@H]2Oc3ccc(O)cc3[C@@H]3CCC[C@@H]32)cc1	%	47
CC[C@]12C=CCN3CC[C@@]4(c5cc([C@@]6(C(=O)OC)C[C@H]7C[C@@H](C(C)(F)F)CN(Cc8c6[nH]c6ccccc86)C7)c(OC)cc5N(C)[C@H]4[C@@](O)(C(=O)OC)[C@H]1OC(C)=O)[C@@H]32	%	24.8
C[C@H](NC(=O)C(C#N)=Cc1cccc(Br)n1)c1ccccc1	%	33.4
COc1cc(OC)c(C=CS(=O)(=O)Cc2ccc(OC)c(NCC(=O)O)c2)c(OC)c1	%	77.6

Query: parasite growth, % of control (lower = inhibition); subject: Cc1ccc([N+](=O)[O-])cc1S(=O)(=O)N(C)N=Cc1cnc2ccc(Br)cn12
20.1

* * *

Assay: Quantitative High-Throughput drug screen in 47 multiple myeloma cell lines against the NCATS MIPE library collection: JJN3_DSMZ cell viability assay (AID 1918966; note: nearly all actives have a fitted effect of over 50% in size; note: potency is the fitted concentration of half-maximal effect)
Conditions: JJN3 myeloma cells viability, CellTiter-Glo ATP, 48 h; series mostly up to 45.8 µM
Text: PI: Beverly A. Mock Ph.D. Laboratory of Cancer Biology and Genetics, Center for Cancer Research, National Cancer Institute, National Institute of Health, Bethesda, Maryland […] 5; Detector; 425V; Luminescence; Viewlux PerkinElmer. […] 1. […] Briefly, the corresponding myeloma cell lines were screened in 1,536-well plates with 500 cells, 5-uL per well for inhibition of cell viability (assessed by measuring ATP levels with CellTiterGlo). […]
Inconclusive results are not listed. The source made the active and inactive calls. Calls come from the whole dose curve; as a rule, active = well fitted cell-killing curve with a large enough effect; inconclusive = small, poorly fitted or top-dose-only effect, or effect the other way; inactive = no such curve, though single readings can be large or run the other way.
measuredMetric: Potency

Example cases with answers are listed next.
compound	Potency
O=C(CCCCCCC(=O)Nc1cccnc1)NO	4.18 µM (active)
CCn1c(=O)c2c(nc(C=Cc3ccc(OC)c(OC)c3)n2C)n(CC)c1=O	inactive
C=C1C(=O)O[C@H]2[C@@H]1CCC(C)=CCC[C@@]1(C)O[C@@H]21	7.43 µM (active)
CN(C)c1ccc2cc(C(=O)N[C@@H](CCCN=C(N)CCl)C(=O)NCc3ccccc3)ccc2c1	1.05 µM (active)

Query: Potency; subject: CC(C)C[C@H](NC(=O)[C@@H](NC(=O)c1cccc(-c2ccccc2)n1)[C@@H](C)O)B(O)O
0.0418 µM (active)

Query: Potency; subject: CC(=O)NCC(=O)N1[C@H]2CC[C@H]1c1cc(Nc3ncc(C(F)(F)F)c(NC4CCC4)n3)ccc12
2.64 µM (active)

Query: Potency; subject: CN[C@@H]1C[C@H]2O[C@@](C)([C@H]1OC)n1c3ccccc3c3c4c(c5c6ccccc6n2c5c31)C(=O)N[C@H]4O
1.66 µM (active)

* * *

Experiment: Quantitative High-Throughput drug screen in 47 multiple myeloma cell lines against the NCATS MIPE library collection: KMS12BM_JCRB cell viability assay (AID 1918971); note: potency is the fitted concentration of half-maximal effect; nearly all actives have a fitted effect of over 35% in size
Settings: KMS12BM myeloma viability, CellTiter-Glo ATP, 48 h; series mostly up to 45.8 µM
Text: PI: Beverly A. Mock Ph.D. Laboratory of Cancer Biology and Genetics, Center for Cancer Research, National Cancer Institute, National Institute of Health, Bethesda, Maryland […] 5; Detector; 425V; Luminescence; Viewlux PerkinElmer. […] 1. […] Briefly, the corresponding myeloma cell lines were screened in 1,536-well plates with 500 cells, 5-uL per well for inhibition of cell viability (assessed by measuring ATP levels with CellTiterGlo). […]
Results filed as inconclusive are left out. Activity calls are given as the source filed them. The call rests on the fitted dose curve; in most records, active means well fitted cell-killing curve with a large enough effect; inconclusive means small, poorly fitted or top-dose-only effect, or effect the other way; inactive means no such curve, though single readings can be large or run the other way.
Potency values for the compounds below.

Query: Potency; subject: CC(=O)NCC(=O)N1[C@H]2CC[C@H]1c1cc(Nc3ncc(C(F)(F)F)c(NC4CCC4)n3)ccc12
9350 nM (active)

Query: Potency; subject: Cn1cnc(=N)c2[nH]cnc21
105 nM (active)

Query: Potency; subject: CC(C)(O)Cn1c(NC(=O)c2ccc(-c3cn[nH]c3)s2)nc2cc(CN3CCOCC3)ccc21
2350 nM (active)

Query: Potency; subject: Cc1cc(Nc2ncc3c(n2)N(C)C(=O)N(c2cc(NC(=O)c4cccc(C(F)(F)F)c4)ccc2C)C3)n(C)n1
526 nM (active)

Query: Potency; subject: Cc1ncc(-c2ccnc(Nc3ccc(S(C)(=O)=O)cc3)n2)n1C(C)C
4180 nM (active)

Query: Potency; subject: CC(=O)[C@]1(O)Cc2c(O)c3c(c(O)c2[C@@H](O[C@H]2C[C@H](N)[C@@H](O)[C@H](C)O2)C1)C(=O)c1ccccc1C3=O
235 nM (active)

Query: Potency; subject: CC[C@@]1([C@@H]2O[C@@H]([C@H]3O[C@@](O)(CO)[C@H](C)C[C@H]3C)C[C@H]2C)CC[C@H]([C@]2(C)CC[C@]3(C[C@H](O)[C@@H](C)[C@@H]([C@@H](C)[C@@H](OC)[C@H](C)C(=O)O)O3)O2)O1
45.7 nM (active)

Source: PubChem BioAssay (NCATS)
